- EXPERIMENTAL TARGET: PD-L1 (Homo sapiens, UniProt Q9NZQ7)
- Construct: determine if they can specifically dimerize the extracellular domains of PD-L1
- TEST NAME: PD-L1/PD-L1 dimerization biochemical protein-protein interaction assay (ALPHA)
- Format: binding
- EXPERIMENTAL SETUP: compound-induced PD-L1 dimerization, head prints '1 nM' (0.5 nM His-tagged PD-L1 and 0.5 nM FLAG-tagged PD-L1), read-out: AC50 PDL1 Dimer Alpha 1 nM
Label Yes when AC50 < 70 nM; otherwise No.

{"MOLECULE": "COc1cc(-c2cccc(-c3cccc(COc4cc(OCc5cncc(C#N)c5)c(CN[C@@](C)(CO)C(=O)O)cc4Cl)c3C)c2C)ccc1CNCC1CCC(=O)N1 (stereo partly drawn) [Example 508]", "CLASS NAME": "No"}
{"MOLECULE": "COc1nc(O[C@H]2CCc3c(-c4cccc(-c5ccc(CNC[C@@H]6CCC(=O)N6)cc5)c4Cl)cccc32)c(Cl)cc1CN1CC(O)C1 [Example 720]", "CLASS NAME": "No"}
{"MOLECULE": "COc1nc(-c2cccc(-c3cccc(-c4ccn5cc(CNC[C@@H]6CCC(=O)N6)nc5c4)c3Cl)c2Cl)ccc1CNC[C@@H]1CCC(=O)N1 [Example 619]", "CLASS NAME": "No"}
{"MOLECULE": "COc1nc(O[C@H]2CCc3c(-c4cccc(-c5ccc(C6=NCCN6)c(OC)n5)c4Cl)cccc32)c(Br)cc1CNC[C@@H](O)CC(=O)O [Example 787]", "CLASS NAME": "Yes"}
{"MOLECULE": "COc1nc(-c2cccc(-c3cccc(COc4nc(OCc5cncc(C#N)c5)c(CNC[C@@H]5CCC(=O)N5)cc4Br)c3Cl)c2Cl)ccc1C1=NCCN1 [Example 556]", "CLASS NAME": "Yes"}

====

- EXPERIMENTAL TARGET: PD-1/PD-L1 (Homo sapiens)
- Sequence (Q9NZQ7 19-238 limits assumed): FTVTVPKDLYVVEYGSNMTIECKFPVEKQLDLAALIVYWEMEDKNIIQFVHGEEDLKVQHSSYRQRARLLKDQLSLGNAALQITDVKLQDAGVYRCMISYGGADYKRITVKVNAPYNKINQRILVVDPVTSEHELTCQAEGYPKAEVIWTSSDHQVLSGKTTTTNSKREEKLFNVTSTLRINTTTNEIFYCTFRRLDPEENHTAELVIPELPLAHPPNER
- TEST NAME: PD-1/PD-L1 biochemical protein-protein interaction assay (ALPHA)
- EXPERIMENTAL SETUP: 0.3 nM His tagged PD-L1, 2.5 nM biotinylated Fc-PD-1, 60 minutes at 25° C., read-out: IC50 PD-L1-PD-1 Alpha IC50-mono PD-L1-fcP-D1
The reader will find reported IC50 values listed item by item below.

{"COMPOUND": "COc1nc(O[C@H]2CCc3c(-c4cccc(-c5cnc6c(CN7CC8(CNC(=O)C8)C7)cn(C)c6n5)c4Cl)cccc32)c(Cl)cc1CN1CC(C(=O)O)C1 [Example 527]", "IC50 [nM]": 0.064}
{"COMPOUND": "CN1CCCC1c1ccc(-c2cccc(-c3cccc4c3CC[C@@H]4Oc3nc(OCc4cncc(C#N)c4)c(CNC(C)(C)C(=O)O)cc3Cl)c2Cl)cc1 (some centres unmarked) [Example 672]", "IC50 [nM]": 0.064}
{"COMPOUND": "COc1nc(/C=C/c2cccc(-c3cccc(/C=C/c4ccc(CNC[C@@H](O)CC(=O)O)c(OC)n4)c3C)c2C)ccc1CNC[C@@H](O)CC(=O)O [Example 238]", "IC50 [nM]": 0.9}
{"COMPOUND": "Cc1c(COc2nc(OCc3cncc(S(C)(=O)=O)c3)c(CNC[C@@H](O)CC(=O)O)cc2Br)cccc1-c1cccc(COc2nc(OCc3cncc(S(C)(=O)=O)c3)c(CNC[C@@H](O)CC(=O)O)cc2Br)c1C [Example 42]", "IC50 [nM]": 0.3}
{"COMPOUND": "COc1nc(-c2cccc(-c3cccc4c3CC[C@@H]4Oc3nc(OC)c(CN4C[C@@H](C)[C@H](C(=O)O)C4)cc3Cl)c2Cl)ccc1CNC[C@@H]1CCC(=O)N1 [Example 765]", "IC50 [nM]": 0.064}
{"COMPOUND": "Cc1c(COc2cc(OCc3cncc(C#N)c3)c(CN[C@@](C)(CO)C(=O)O)cc2Cl)cccc1-c1cccc(-c2ccc(CNCCc3c[nH]cn3)cc2)c1C [Example 360]", "IC50 [nM]": 1.12}
{"COMPOUND": "COc1nc(-c2cccc(-c3cccc4c3CC[C@@H]4Oc3nc(OC)c(CN4CCC[C@H](C(=O)O)[C@@H]4C)cc3Cl)c2Cl)ccc1CNC[C@@H]1CCC(=O)N1 [Example 764]", "IC50 [nM]": 0.064}
{"COMPOUND": "Cc1c(COc2cc(OCc3cncc(C#N)c3)c(CNC[C@@H](O)CC(=O)O)cc2Cl)cccc1-c1cccc(-c2nc3ccc(CNC[C@@H](O)CC(=O)O)cn3n2)c1C [Example 595]", "IC50 [nM]": 0.064}
{"COMPOUND": "Cc1c(-c2nc3ccc(CNC[C@@H](O)CC(=O)O)cc3s2)cccc1-c1cccc2c1CC[C@@H]2Oc1nc(OCc2cncc(C#N)c2)c(CNC[C@@H](O)CC(=O)O)cc1Cl [Example 396]", "IC50 [nM]": 0.064}
{"COMPOUND": "Cc1c(COc2cc(OCc3cncc(C#N)c3)c(CNCCO)cc2Br)cccc1-c1cccc(COc2cc(OCc3cncc(C#N)c3)c(CNCCO)cc2Br)c1C [Example 254]", "IC50 [nM]": 20.8}
{"COMPOUND": "Cc1c(COc2cc(OCc3cncc(C#N)c3)c(CNC[C@@H](O)CC(=O)O)cc2Cl)cccc1-c1cccc(-c2ccc(CNC[C@@H](O)CC(=O)O)c(SC(F)F)c2)c1C [Example 460]", "IC50 [nM]": 0.147}

====

- EXPERIMENTAL TARGET: PD-1/PD-L1 interaction (Homo sapiens)
- Construct: expressed in transfected cells; host or cells: CHO cells (aAPC-PD-L1) co-cultured with Jurkat cells overexpressing PD-1 and an NFAT-luciferase reporter
- Sequence (Q9NZQ7 19-290): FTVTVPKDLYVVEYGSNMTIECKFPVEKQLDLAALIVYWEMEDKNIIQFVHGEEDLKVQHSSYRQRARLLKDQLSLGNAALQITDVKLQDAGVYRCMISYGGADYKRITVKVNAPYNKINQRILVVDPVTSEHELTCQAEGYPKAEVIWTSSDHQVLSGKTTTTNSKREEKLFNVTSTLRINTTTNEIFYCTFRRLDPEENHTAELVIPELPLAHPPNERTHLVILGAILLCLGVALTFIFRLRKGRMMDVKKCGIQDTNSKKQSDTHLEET
- TEST NAME: PD-1/PD-L1 NFAT reporter co-culture assay
- Format: cell-based
- EXPERIMENTAL SETUP: Jurkat PD-1 NFAT-luciferase cells co-cultured with aAPC-PD-L1 CHO cells, 6 hrs at 37° C.; read-out: EC50 NFAT Luciferase
pEC50: −log10 of the molar value.
Reported pEC50 by item:
READOUT KIND: pEC50

{"ENTRY SMILES": "Cc1c(COc2cc(OCc3cncc(C#N)c3)c(CN[C@@](C)(CO)C(=O)O)cc2Cl)cccc1-c1cccc(-c2ccc3c(c2)ncc(=O)n3CCN(C)C)c1C", "CMP": "=", "VAL": 6.90}
{"ENTRY SMILES": "COc1nc(OCc2cccc(-c3cccc(COc4nc(OC)c(CNC5(C(=O)O)COC5)cc4Cl)c3C)c2C)c(Cl)cc1CNC1(C(=O)O)COC1", "CMP": "≤", "VAL": 4.30}
{"ENTRY SMILES": "Cc1c(COc2nc(OCc3cncc(C#N)c3)c(CNC[C@@H](O)CC(=O)O)cc2Br)cccc1-c1cccc(COc2nc(OCc3cncc(C#N)c3)c(CNC[C@@H](O)CC(=O)O)cc2Br)c1C", "CMP": "=", "VAL": 6.97}

====

# EC50 annotations
- EXPERIMENTAL TARGET: PD-1/PD-L1 interaction (Homo sapiens)
- Construct: expressed in transfected cells; host or cells: CHO cells (aAPC-PD-L1) co-cultured with Jurkat cells overexpressing PD-1 and an NFAT-luciferase reporter
- TEST NAME: PD-1/PD-L1 NFAT reporter co-culture assay
- Assay type: cell-based
- EXPERIMENTAL SETUP: Jurkat PD-1 NFAT-luciferase cells co-cultured with aAPC-PD-L1 CHO cells, 6 hrs at 37° C.; read-out: EC50 NFAT Luciferase

{"ENTRY SMILES": "COc1nc(OCc2cccc(-c3cccc(COc4nc(OC)c(CNC[C@H](O)CC(=O)O)cc4Br)c3Cl)c2Cl)c(Br)cc1CNC[C@H](O)CC(=O)O", "EXPERIMENTAL TARGET": "PD-1/PD-L1 interaction (Homo sapiens)", "EC50 / nM": 60}
{"ENTRY SMILES": "Cc1c(COc2nc(OCc3cncc(C#N)c3)c(CN[C@@](C)(CO)C(=O)O)cc2Cl)cccc1-c1cccc(-c2ccc3c(c2)CC[C@@]3(CO)N(C)C)c1C", "EXPERIMENTAL TARGET": "PD-1/PD-L1 interaction (Homo sapiens)", "EC50 / nM": 1770}
{"ENTRY SMILES": "Cc1c(COc2nc(OCC3COC3)c(CNC[C@@H](O)CC(=O)O)cc2Br)cccc1-c1cccc(COc2nc(OCC3COC3)c(CNC[C@@H](O)CC(=O)O)cc2Br)c1C", "EXPERIMENTAL TARGET": "PD-1/PD-L1 interaction (Homo sapiens)", "EC50 / nM": 391}

====

// values below are reported AC50
- EXPERIMENTAL TARGET: PD-L1 (Homo sapiens, UniProt Q9NZQ7)
- Construct: determine if they can specifically dimerize the extracellular domains of PD-L1
- TEST NAME: PD-L1/PD-L1 dimerization biochemical protein-protein interaction assay (ALPHA)
- Format: binding
- EXPERIMENTAL SETUP: compound-induced PD-L1 dimerization, head prints '1 nM' (0.5 nM His-tagged PD-L1 and 0.5 nM FLAG-tagged PD-L1), read-out: AC50 PDL1 Dimer Alpha 1 nM
READOUT KIND: AC50 (nM)

{"COMPOUND": "COc1nc(O[C@H]2CCc3c(-c4cccc(-c5ccc(CNC[C@@H]6CCC(=O)N6)cc5)c4Cl)cccc32)c(Cl)cc1CN[C@@](C)(CO)C(=O)O [Example 731]", "VAL": 16}
{"COMPOUND": "C[C@@](CO)(NCc1cc(Cl)c(OCc2cccc(-c3cccc(-c4ccc(OCCNCCO)cc4)c3Cl)c2Cl)nc1OCc1cncc(C#N)c1)C(=O)O [Example 340]", "VAL": 27.8}
{"COMPOUND": "Cc1c(COc2cc(OCc3cncc(C#N)c3)c(CN[C@@H]3CCC[C@@H]3O)cc2Cl)cccc1-c1cccc(-c2ccc3c(c2)CCC3N2CC[C@H](C(=O)O)C2)c1C (stereo partly drawn) [Example 369]", "VAL": 57.6}
